Attribution: paper PMC5502055

Assay: Pharmacokinetics: serum lanreotide concentration (radioimmunoassay)
Assay type: in vivo, human
Conditions: human, serum, sc, 120 mg; PPS 28 patients; read-out: serum concentration at 4 weeks after the first injection, before injection (trough, mean ± SD)
Measurement label: level at 672 h (ng/mL)
The response must be a number in ng/mL with no trailing unit.

I have this compound here, CC(C)[C@@H]1NC(=O)[C@H](CCCCN)NC(=O)[C@@H](Cc2c[nH]c3ccccc23)NC(=O)[C@H](Cc2ccc(O)cc2)NC(=O)[C@@H](NC(=O)[C@H](N)Cc2ccc3ccccc3c2)CSSC[C@@H](C(=O)N[C@H](C(N)=O)[C@@H](C)O)NC1=O [lanreotide] , and I need its recorded level at 672 h. 3.1

====

Assay: Pharmacokinetics: serum lanreotide concentration (radioimmunoassay)
Assay type: in vivo, human
Details: human, in vivo, serum; PPS 28 patients; read-out: time of Cmax after the first injection (median)
Measurement label: Tmax

For the molecule CC(C)[C@@H]1NC(=O)[C@H](CCCCN)NC(=O)[C@@H](Cc2c[nH]c3ccccc23)NC(=O)[C@H](Cc2ccc(O)cc2)NC(=O)[C@@H](NC(=O)[C@H](N)Cc2ccc3ccccc3c2)CSSC[C@@H](C(=O)N[C@H](C(N)=O)[C@@H](C)O)NC1=O [lanreotide] , what Tmax is on record? 3.9 h
